The origin of these recorded values is the supplement of paper PMC11061612.

Please provide measured Bliss excess for the entries that follow.
- System: T47D (Breast Carcinoma)
- measurementProtocol: Bliss excess, mean over the matrix (fraction); higher = more synergy
Quick one: just the number, no unit, thanks!

Exam item: Item CC(=O)c1c(C)c2cnc(Nc3ccc(N4CCNCC4)cn3)nc2n(C2CCCC2)c1=O [Palbociclib] + CN(CC[C@H](CSC1=CC=CC=C1)NC2=C(C=C(C=C2)S(=O)(=O)NC(=O)C3=CC=C(C=C3)N4CCC(CC4)[C@H](C5=CC=CC=C5C6=CC=C(C=C6)Cl)O)S(=O)(=O)C(F)(F)F)CCO [AZD4320] (first compound max 10 µM, 7x7, partner max 1 µM) : provide Bliss excess
Marked response: -0.0628

Exam item: Look up and report measured Bliss excess for this entry: Cc1c2c(nn1C)CSCc1cc(n(C)n1)CSc1cc(c3ccccc3c1)OCCCc1c(C(=O)O)n(C)c3c-2c(Cl)ccc13 [AZD5991] + C[C@@H]1COCCN1C2=NC(=NC(=C2)C3(CC3)[S@](=N)(=O)C)C4=C5C=CNC5=NC=C4 [AZD6738] (first compound max 1 µM, 7x7, partner max 10 µM)
Marked response: 0.0333

Exam item: Provide Bliss excess value for the following molecule: Cn1cnc2c(F)c(Nc3ccc(Br)cc3Cl)c(C(=O)NOCCO)cc21 [Selumetinib] + C=CCn1c(=O)c2cnc(Nc3ccc(N4CCN(C)CC4)cc3)nc2n1-c1cccc(C(C)(C)O)n1 [AZD1775] (first compound max 10 µM, partner max 1 µM)
Marked response: -0.0179

Exam item: Quick one: give measured Bliss excess for Cc1c2c(nn1C)CSCc1cc(n(C)n1)CSc1cc(c3ccccc3c1)OCCCc1c(C(=O)O)n(C)c3c-2c(Cl)ccc13 [AZD5991] + Cn1cnc2c(F)c(Nc3ccc(Br)cc3Cl)c(C(=O)NOCCO)cc21 [Selumetinib] (first compound max 1 µM, 7x7, partner max 3 µM)
Marked response: -0.0092

Exam item: Return reported Bliss excess. Input molecule: CN(C)CCCOc1ccc(-c2ccc3ncc4c(c3c2)n(C2CCOCC2)c(=O)n4C)cn1 [AZD0156] + C[C@@H]1COCCN1C2=NC(=NC(=C2)C3(CC3)[S@](=N)(=O)C)C4=C5C=CNC5=NC=C4 [AZD6738] (first compound max 1 µM, 7x7, partner max 10 µM)
Marked response: -0.0223

Exam item: Give Bliss excess for the following molecule: CCN(CCO)CCCOc1ccc2c(Nc3cc(CC(=O)Nc4cccc(F)c4)[nH]n3)ncnc2c1 [AZD2811] + O=C(c1cc(Cc2n[nH]c(=O)c3ccccc23)ccc1F)N1CCN(C(=O)C2CC2)CC1 [Olaparib] (first compound max 1 µM, 7x7, partner max 10 µM)
Marked response: 0.005

Exam item: Please report the measured Bliss excess for CCN(CCO)CCCOc1ccc2c(Nc3cc(CC(=O)Nc4cccc(F)c4)[nH]n3)ncnc2c1 [AZD2811] + C=CCn1c(=O)c2cnc(Nc3ccc(N4CCN(C)CC4)cc3)nc2n1-c1cccc(C(C)(C)O)n1 [AZD1775] (first compound max 1 µM, partner max 1 µM)
Marked response: -0.0236

Exam item: Note down Bliss excess recorded for CN(C)CCCOc1ccc(-c2ccc3ncc4c(c3c2)n(C2CCOCC2)c(=O)n4C)cn1 [AZD0156] + O=C(c1cc(Cc2n[nH]c(=O)c3ccccc23)ccc1F)N1CCN(C(=O)C2CC2)CC1 [Olaparib] (first compound max 3 µM, partner max 3 µM)
Marked response: 0.0296

Exam item: Output Bliss excess of COc1nnc2ccc(N3CCC(c4ccc(OCCN5CCN(C)C(=O)[C@H]5C)cc4)CC3)nn12 [AZD5153] + C[C@@H]1COCCN1C2=NC(=NC(=C2)C3(CC3)[S@](=N)(=O)C)C4=C5C=CNC5=NC=C4 [AZD6738] (first compound max 1 µM, 7x7, partner max 10 µM)
Marked response: 0.0796

Exam item: Name the recorded Bliss excess of the molecule listed here: CN(CCO)CC[C@H](CSc1ccccc1)Nc1ccc(S(=O)(=O)NC(=O)c2ccc(N3CCC([C@@H](O)c4ccccc4-c4ccc(Cl)cc4)CC3)cc2)cc1S(=O)(=O)C(F)(F)F [AZD4320] + C=CCn1c(=O)c2cnc(Nc3ccc(N4CCN(C)CC4)cc3)nc2n1-c1cccc(C(C)(C)O)n1 [AZD1775] (first compound max 1 µM, partner max 1 µM)
Marked response: -0.0509

Exam item: Determine its reported Bliss excess: CC(=O)c1c(C)c2cnc(Nc3ccc(N4CCNCC4)cn3)nc2n(C2CCCC2)c1=O [Palbociclib] + CC1(C)CCC(CN2CCN(c3ccc(C(=O)NS(=O)(=O)c4ccc(NCC5CCOCC5)c([N+](=O)[O-])c4)c(Oc4cnc5[nH]ccc5c4)c3)CC2)=C(c2ccc(Cl)cc2)C1 [Venetoclax] (first compound max 10 µM, 7x7, partner max 1 µM)
Marked response: 0.0466

Exam item: State, in one line, measured Bliss excess of Cn1cnc2c(F)c(Nc3ccc(Br)cc3Cl)c(C(=O)NOCCO)cc21 [Selumetinib] + CC(C)n1c(=O)n(C)c2cnc3cc(F)c(-c4ccc(OCCCN5CCCCC5)nc4)cc3c21 [AZD1390] (first compound max 10 µM, 7x7, partner max 0.3 µM)
Marked response: -0.0468

Exam item: Respond only with Bliss excess recorded for C[C@@H]1COCCN1c1cc(C2([S@](C)(=N)=O)CC2)nc(-c2ccnc3[nH]ccc23)n1 [AZD6738] + O=C(c1cc(Cc2n[nH]c(=O)c3ccccc23)ccc1F)N1CCN(C(=O)C2CC2)CC1 [Olaparib] (first compound max 10 µM, 7x7, partner max 10 µM)
Marked response: 0.0359

====

Please provide measured Bliss excess for the entries that follow.
- System: NCI-H1963 (Small Cell Lung Carcinoma)
- measurementProtocol: Bliss excess, mean over the matrix (fraction); higher = more synergy
Just the number, please, no unit attached.

Exam item: Give me measured Bliss excess, please, for this compound: CC1(C)CCC(CN2CCN(c3ccc(C(=O)NS(=O)(=O)c4ccc(NCC5CCOCC5)c([N+](=O)[O-])c4)c(Oc4cnc5[nH]ccc5c4)c3)CC2)=C(c2ccc(Cl)cc2)C1 [Venetoclax] + C=CCn1c(=O)c2cnc(Nc3ccc(N4CCN(C)CC4)cc3)nc2n1-c1cccc(C(C)(C)O)n1 [AZD1775] (first compound max 1 µM, partner max 1 µM)
Marked response: 0.123

Exam item: Provide measured Bliss excess value, entry: CC(=O)c1c(C)c2cnc(Nc3ccc(N4CCNCC4)cn3)nc2n(C2CCCC2)c1=O [Palbociclib] + Cn1cnc2c(F)c(Nc3ccc(Br)cc3Cl)c(C(=O)NOCCO)cc21 [Selumetinib] (first compound max 10 µM, 7x7, partner max 10 µM)
Marked response: 0.005

Exam item: For COc1nnc2ccc(N3CCC(c4ccc(OCCN5CCN(C)C(=O)[C@H]5C)cc4)CC3)nn12 [AZD5153] + C[C@@H]1COCCN1C2=NC(=NC(=C2)C3(CC3)[S@](=N)(=O)C)C4=C5C=CNC5=NC=C4 [AZD6738] (first compound max 1 µM, 7x7, partner max 10 µM) , write its Bliss excess.
Marked response: -0.0228

====

- System: SK-CO-1 (Colorectal Carcinoma)
- measurementProtocol: combination Emax (second highest fraction inhibited in the dose matrix, 72 h); higher = more inhibition; extreme values may be limits of the assay
Hi there, I'd appreciate the recorded combination Emax for every entry that follows.

Exam item: Tell us which combination Emax value is on record for C[C@@H]1COCCN1c1cc(C2([S@](C)(=N)=O)CC2)nc(-c2ccnc3[nH]ccc23)n1 [AZD6738] + Nc1ccn([C@@H]2O[C@H](CO)[C@@H](O)C2(F)F)c(=O)n1 [Gemcitabine] (first compound max 10 µM, 7x7, partner max 0.3 µM)
Marked response: 0.897

Exam item: Identify measured combination Emax corresponding to C=CCn1c(=O)c2cnc(Nc3ccc(N4CCN(C)CC4)cc3)nc2n1-c1cccc(C(C)(C)O)n1 [AZD1775] + C[C@@H]1COCCN1C2=NC(=NC(=C2)C3(CC3)[S@](=N)(=O)C)C4=C5C=CNC5=NC=C4 [AZD6738] (first compound max 1 µM, partner max 10 µM)
Marked response: 0.738

====

- Test system: SAT (Head and Neck Carcinoma)
- measurementProtocol: combination Emax (second highest fraction inhibited in the dose matrix, 72 h); higher = more inhibition; extreme values may be limits of the assay
Assign combination Emax to each entry below.
A bare number is all that is needed in reply.

Exam item: In one line, give reported combination Emax of the entry NC1(C(=O)N[C@@H](CCO)c2ccc(Cl)cc2)CCN(c2ncnc3[nH]ccc23)CC1 [Capivasertib] + C[C@@H]1COCCN1C2=NC(=NC(=C2)C3(CC3)[S@](=N)(=O)C)C4=C5C=CNC5=NC=C4 [AZD6738] (first compound max 10 µM, 7x7, partner max 10 µM) .
Marked response: 0.579

Exam item: Answer with the recorded combination Emax of NC1(C(=O)N[C@@H](CCO)c2ccc(Cl)cc2)CCN(c2ncnc3[nH]ccc23)CC1 [Capivasertib] + CC(C)n1c(=O)n(C)c2cnc3cc(F)c(-c4ccc(OCCCN5CCCCC5)nc4)cc3c21 [AZD1390] (first compound max 10 µM, 7x7, partner max 0.3 µM) only.
Marked response: 0.555

Exam item: State, in one line, measured combination Emax of CN(CCO)CC[C@H](CSc1ccccc1)Nc1ccc(S(=O)(=O)NC(=O)c2ccc(N3CCC([C@@H](O)c4ccccc4-c4ccc(Cl)cc4)CC3)cc2)cc1S(=O)(=O)C(F)(F)F [AZD4320] + CCN(CCO)CCCOc1ccc2c(Nc3cc(CC(=O)Nc4cccc(F)c4)[nH]n3)ncnc2c1 [AZD2811] (first compound max 1 µM, 7x7, partner max 1 µM)
Marked response: 0.375

Exam item: Name the recorded combination Emax of the compound listed here: CN(CCO)CC[C@H](CSc1ccccc1)Nc1ccc(S(=O)(=O)NC(=O)c2ccc(N3CCC([C@@H](O)c4ccccc4-c4ccc(Cl)cc4)CC3)cc2)cc1S(=O)(=O)C(F)(F)F [AZD4320] + CN(C)CCCOc1ccc(-c2ccc3ncc4c(c3c2)n(C2CCOCC2)c(=O)n4C)cn1 [AZD0156] (first compound max 1 µM, 7x7, partner max 1 µM)
Marked response: 0.193

Exam item: Determine its reported combination Emax: Cc1c2c(nn1C)CSCc1cc(n(C)n1)CSc1cc(c3ccccc3c1)OCCCc1c(C(=O)O)n(C)c3c-2c(Cl)ccc13 [AZD5991] + C=CCn1c(=O)c2cnc(Nc3ccc(N4CCN(C)CC4)cc3)nc2n1-c1cccc(C(C)(C)O)n1 [AZD1775] (first compound max 1 µM, partner max 1 µM)
Marked response: 0.829

Exam item: Report combination Emax for COc1cc2ncnc(Nc3ccc(F)c(Cl)c3)c2cc1OCCCN1CCOCC1 [Gefitinib] + CC(C)n1c(=O)n(C)c2cnc3cc(F)c(-c4ccc(OCCCN5CCCCC5)nc4)cc3c21 [AZD1390] (first compound max 10 µM, 7x7, partner max 0.3 µM)
Marked response: 0.69

Exam item: Give me measured combination Emax, please, for this compound: CC1(C)CCC(CN2CCN(c3ccc(C(=O)NS(=O)(=O)c4ccc(NCC5CCOCC5)c([N+](=O)[O-])c4)c(Oc4cnc5[nH]ccc5c4)c3)CC2)=C(c2ccc(Cl)cc2)C1 [Venetoclax] + Cn1cnc2c(F)c(Nc3ccc(Br)cc3Cl)c(C(=O)NOCCO)cc21 [Selumetinib] (first compound max 1 µM, 7x7, partner max 3 µM)
Marked response: 0.566

Exam item: Give combination Emax for NC1(C(=O)N[C@@H](CCO)c2ccc(Cl)cc2)CCN(c2ncnc3[nH]ccc23)CC1 [Capivasertib] + COc1nnc2ccc(N3CCC(c4ccc(OCCN5CCN(C)C(=O)[C@H]5C)cc4)CC3)nn12 [AZD5153] (first compound max 10 µM, 7x7, partner max 1 µM)
Marked response: 0.811

Exam item: Specify combination Emax for CC1(C)CCC(CN2CCN(c3ccc(C(=O)NS(=O)(=O)c4ccc(NCC5CCOCC5)c([N+](=O)[O-])c4)c(Oc4cnc5[nH]ccc5c4)c3)CC2)=C(c2ccc(Cl)cc2)C1 [Venetoclax] + CN(C)CCCOc1ccc(-c2ccc3ncc4c(c3c2)n(C2CCOCC2)c(=O)n4C)cn1 [AZD0156] (first compound max 1 µM, 7x7, partner max 1 µM) and stop.
Marked response: 0.204

Exam item: Please supply the value of reported combination Emax for the item CN(C)CCCOc1ccc(-c2ccc3ncc4c(c3c2)n(C2CCOCC2)c(=O)n4C)cn1 [AZD0156] + CCN(CCO)CCCOc1ccc2c(Nc3cc(CC(=O)Nc4cccc(F)c4)[nH]n3)ncnc2c1 [AZD2811] (first compound max 1 µM, 7x7, partner max 1 µM)
Marked response: 0.142

Exam item: Answer with the recorded combination Emax of CC(=O)c1c(C)c2cnc(Nc3ccc(N4CCNCC4)cn3)nc2n(C2CCCC2)c1=O [Palbociclib] + Cn1cnc2c(F)c(Nc3ccc(Br)cc3Cl)c(C(=O)NOCCO)cc21 [Selumetinib] (first compound max 10 µM, 7x7, partner max 10 µM) only.
Marked response: 0.549

Exam item: // fetch combination Emax given entry CCN(CCO)CCCOc1ccc2c(Nc3cc(CC(=O)Nc4cccc(F)c4)[nH]n3)ncnc2c1 [AZD2811] + O=C(c1cc(Cc2n[nH]c(=O)c3ccccc23)ccc1F)N1CCN(C(=O)C2CC2)CC1 [Olaparib] (first compound max 1 µM, 7x7, partner max 10 µM)
Marked response: 0.215
